Collected Ki for Prothrombin (Homo sapiens) across several studies; compounds listed below.
reportedMetric: Ki (nM)

Exercise: What does the record list as Ki for `Cc1ncc(CNc2ccc(-c3ccc(C(=N)N)cc3)cc2)c(CO)c1OCc1ccc(C(=N)N)cc1` ?
Key: 10300

Exercise: What does the data say about its Ki? Entry: `Cc1ncc(COc2ccc(C(=N)N)cc2)c(C)c1OCc1cccc(C(=N)N)c1`
Key: 700

Exercise: Which Ki is listed for `N=C(N)c1ccc(CNC(=O)CNC(=O)[C@@H](CN)NS(=O)(=O)Cc2ccccc2)cc1` ?
Key: 10000

Exercise: Using the record for `N=C(N)c1ccc(NCc2cnc(CF)c(OCc3cccc(C(=N)N)c3)c2CF)cc1` , report its Ki.
Key: 9

P: O=C([C@H](Cc1cc(-c2ccc(Cl)s2)on1)NS(=O)(=O)c1cccc(N2CCOCC2=O)c1Cl)N1CCCCCC1
Q: COC(=O)c1ccc(CS(=O)(=O)N[C@H](CO)C(=O)NCC(=O)NCc2ccc(C(=N)N)cc2)cc1
Exercise: Which numeric Ki is bigger, that of P or that of Q ? Bench note: the answer is the label of the chosen record.
Key: Q
